tested-target: T1, human TSLP (human, UniProt Q969D9 29-159)
T1 construct: also called hTSLP; rhTSLP
assay-name: SPR
quantity-kind: pKd
Answers are plain numbers, as −log10 of the molar value.

Problem: Reported pKd for BDG38.083 (antibody, V domains shown, IgG1) VH: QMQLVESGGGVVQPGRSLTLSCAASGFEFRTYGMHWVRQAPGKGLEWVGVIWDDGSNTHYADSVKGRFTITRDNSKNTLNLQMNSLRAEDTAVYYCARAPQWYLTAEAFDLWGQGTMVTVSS VL: SYILTQPPSVSVAPGQTATITCGGNLIGAKLVHWYQQKPGQAPVLVIYDDSDRPSRIPERFSGSNIGNTATLTISDVEEGDEADYYCQVWDYSSDTMVFGGGTKLTVL : what is it?
Result: 10.01

FYI, the data here is from patent US20240059769A1.
